target: haematopoietic prostaglandin D synthase (H-PGDS) (Homo sapiens)
Construct: Full length human H-PGDS cDNA (Invitrogen Ultimate ORF IOH13026) was amplified by PCR; made in house; host or cells: E. coli BL21 (DE3*), vector pET22b+
Sequence (O60760 whole entry): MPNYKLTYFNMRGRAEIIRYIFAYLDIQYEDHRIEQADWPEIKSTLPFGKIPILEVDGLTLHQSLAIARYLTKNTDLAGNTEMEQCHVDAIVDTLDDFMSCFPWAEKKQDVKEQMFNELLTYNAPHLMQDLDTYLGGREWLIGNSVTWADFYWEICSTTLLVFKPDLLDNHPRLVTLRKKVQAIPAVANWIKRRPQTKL
assay-protocol: H-PGDS RapidFire High Throughput Mass Spectrometry Assay
Assay type: biochemical
run-conditions: H-PGDS RapidFire MS assay, mean pIC50; read-out: Potency Range (mean pIC50) (converted)
measure-name: IC50

In [3]: df
Out[3]:
                                   compound  measure_name     endpoint_value
0  CC1C[C@H](NC(=O)c2cnc3cc(OC(F)F)c(Cl)cc3c2)C(=O)N1 (mixture of isomers)          IC50  0.01 to 0.0794 µM
1  O=C(N[C@H]1CC[C@H]([C@H](O)C(F)(F)F)CC1)c1cnc2cc(OC(F)F)ccc2c1 (single isomer, unassigned)          IC50          < 0.01 µM
2  CC(C)(O)[C@H]1CC[C@H](NC(=O)c2cnc3c(Cl)c(OC(F)F)c(F)cc3c2)CC1          IC50  0.01 to 0.0794 µM
3  C[C@]1(O)C[C@@H](NC(=O)c2cnc3cc(OC(F)F)c(Br)cc3c2)C1          IC50  0.01 to 0.0794 µM
4  Cn1nnnc1N1CCC(NC(=O)c2cnc3cc(Cl)ccc3c2)CC1          IC50        0.1 to 1 µM
5  CS(=O)(=O)N[C@H]1CC[C@H](NC(=O)c2cnc3cc(OC(F)F)c(F)cc3c2)CC1          IC50  0.01 to 0.0794 µM
6  CC(C)(O)[C@H]1CC[C@H](NC(=O)c2cnc3c(F)c(OC(F)F)c(Cl)cc3c2)CC1          IC50          < 0.01 µM
